Provide the recorded solubility thermodynamic for the entries that follow.
Experiment: Aqueous equilibrium solubility of compound in simulated intestinal fluid at pH 6.8
Format: physicochemical
The answer is to be given in µg/mL; state only the numeric part.

Measured solubility thermodynamic, FC(F)(F)c1ccc(Nc2nc(NCc3ccccn3)nc3c2CCN(c2ncccc2C(F)(F)F)CC3)cc1 : 1

Measured solubility thermodynamic, CN1CCN(c2nc3c(c(Nc4ccc(C(F)(F)F)cc4)n2)CCN(c2ncccc2C(F)(F)F)CC3)CC1 : 193

Measured solubility thermodynamic, CCN1CCN(c2nc3c(c(Nc4ccc(C(F)(F)F)cc4)n2)CCN(c2ncccc2C(F)(F)F)CC3)CC1 : 6

Measured solubility thermodynamic, FC(F)(F)c1ccc(Nc2nc(N3CCN(C4CC4)CC3)nc3c2CCN(c2ncccc2C(F)(F)F)CC3)cc1 : 9

Measured solubility thermodynamic, CN(c1nc2c(c(Nc3ccc(C(F)(F)F)cc3)n1)CCN(c1ncccc1C(F)(F)F)CC2)C1CCCNC1 (stereo unspecified) : 211

Measured solubility thermodynamic, CN(C)[C@@H]1CCN(c2nc3c(c(Nc4ccc(C(F)(F)F)cc4)n2)CCN(c2ncccc2C(F)(F)F)CC3)C1 : 57

Measured solubility thermodynamic, COCCN1CCN(c2nc3c(c(Nc4ccc(C(F)(F)F)cc4)n2)CCN(c2ncccc2C(F)(F)F)CC3)CC1 : 6

Measured solubility thermodynamic, CC(C)(C)OC(=O)N1CCCC(Nc2nc3c(c(Nc4ccc(C(F)(F)F)cc4)n2)CCN(c2ncccc2C(F)(F)F)CC3)C1 (stereo unspecified) : 14

Measured solubility thermodynamic, FC(F)(F)c1ccc(Nc2nc(N3CCN(C4CCC4)CC3)nc3c2CCN(c2ncccc2C(F)(F)F)CC3)cc1 : 2

Measured solubility thermodynamic, CC(C)(C)OC(=O)N1CCCCC1CNc1nc2c(c(Nc3ccc(C(F)(F)F)cc3)n1)CCN(c1ncccc1C(F)(F)F)CC2 (stereo unspecified) : 3

Measured solubility thermodynamic, FC(F)(F)c1ccc(Nc2nc(NC3CCCNC3)nc3c2CCN(c2ncccc2C(F)(F)F)CC3)cc1 (stereo unspecified) : 203

Measured solubility thermodynamic, FC(F)(F)c1ccc(Nc2nc(N3CCN(C4CCCC4)CC3)nc3c2CCN(c2ncccc2C(F)(F)F)CC3)cc1 : 11
